Provide the reported Ki of each item.
target: CB2 receptor (Mus musculus, UniProt P47936); construct: membranes were prepared from frozen mouse spleen; from tissue; host or cells: mouse spleen; experiment: CB2 receptor binding, [3H] CP-55,940 displacement, mouse spleen membranes; conditions: TABLE 1; racemic samples; mouse spleen membranes; [3H] CP-55,940; read-out: Kl CB2 (converted)
Sequence (P47936 whole entry): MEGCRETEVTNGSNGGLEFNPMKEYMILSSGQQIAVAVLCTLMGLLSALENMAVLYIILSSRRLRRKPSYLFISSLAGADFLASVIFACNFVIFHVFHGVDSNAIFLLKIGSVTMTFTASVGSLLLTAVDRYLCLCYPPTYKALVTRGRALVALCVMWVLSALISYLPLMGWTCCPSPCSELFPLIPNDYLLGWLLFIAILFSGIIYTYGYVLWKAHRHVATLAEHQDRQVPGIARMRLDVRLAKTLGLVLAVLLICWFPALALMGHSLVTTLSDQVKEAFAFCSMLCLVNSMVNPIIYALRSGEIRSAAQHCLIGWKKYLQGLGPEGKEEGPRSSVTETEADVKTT
Give bare numbers, in nM.

CN1CCCCC1Cn1cc(C(=O)C23CC4CC(CC(C4)C2)C3)c2ccccc21 (centres unmarked) [AM1248]: 332
CN1CCCCC1Cn1cc(C(=O)c2cccc3ccccc23)c2ccc(N=[N+]=[N-])cc21 (racemic) [AM1224]: 0.73
Cc1c(C(=O)c2ccccc2I)c2ccc(N)cc2n1CC1CCCCN1C (racemic) [AM665]: 20.3

For each entry beneath this line, provide reported Ki.
1. Cc1c(C(=O)c2ccccc2)c2ccc(N=[N+]=[N-])cc2n1CC1CCCCN1C (racemic) [AM671]
2. CN1CCCCC1Cn1cc(C(=O)c2cccc3ccccc23)c2ccc(N)cc21 (racemic) [AM1219]
3. Cc1c(C(=O)c2ccccc2I)c2ccc([N+](=O)[O-])cc2n1CC1CCCCN1C (racemic) [AM664]
4. CN1CCCCC1Cn1cc(C(=O)c2cccc3ccccc23)c2ccc([N+](=O)[O-])cc21 (racemic) [AM1218]

1. 59.1
2. 31.3
3. 80
4. 3.98

Form entry - test system: CB2 receptor (Mus musculus, UniProt P47936); read-out: Ki; molecule: Cc1c(C(=O)c2cccc3ccccc23)c2ccc(N)cc2n1CC1CCCCN1C (racemic) [AM1225]
38.5
